Source listed as PubChem BioAssay (NCI).

System: MCF7 breast
Test: NCI-60 one-dose screen, 48 h
Settings: 10 µM
Compounds without any hit were thinned out: in the full panel of roughly 83,000, 20% have a hit. Calls of active or inactive are those of the source. The calls were made as follows: active = growth percent below 10; inactive = the rest.
Write down the outcome that applies. Available outcomes: active, inactive

Solved cases (3 shown):
{"COMPOUND": "C#CC[Se]C(=O)c1ccc2n[se]nc2c1", "MEASUREMENT_TARGET": "MCF7 breast", "CLASS_LABEL": "inactive"}
{"COMPOUND": "CC12CCC3(CCC(=O)NCCCNc4ccnc5cc(Cl)ccc45)[C@@](C)(OO[C@]3(C)O1)O2", "MEASUREMENT_TARGET": "MCF7 breast", "CLASS_LABEL": "active"}
{"COMPOUND": "O=C(NC([Se])=NC1CCCCC1)c1ccc2c(c1)OCO2", "MEASUREMENT_TARGET": "MCF7 breast", "CLASS_LABEL": "inactive"}

*Q* Can you look up the reported call for `COc1ccc2cc([C@H](C)C(=O)[Se]CCC#N)ccc2c1` for me?
*A* active

*Q* Subsequent entry: `COC(=O)CCn1c(-c2ccc(-n3cc(-c4ccc(O[C@H]5O[C@@H]6OC7(C)CC[C@H]8[C@H](C)CC[C@@H]([C@H]5C)[C@@]68OO7)cc4)nn3)cc2)nc2ccccc21`
*A* inactive

*Q* Subsequent entry: `C[C@H]1[C@H](OC(=O)CCC(=O)N(CCCc2cn(-c3ccc(C#N)cc3)nn2)CCNc2ccnc3cc(Cl)ccc23)O[C@@H]2OC3(C)CC[C@H]4[C@H](C)CC[C@@H]1[C@@]24OO3`
*A* active

*Q* Subsequent entry: `CC1=C(CCC=NNC(N)=O)C2=C(C)C3(CC3)[C@@](C)(O)C(=O)C2=C1`
*A* active

*Q* Subsequent entry: `C#CC[Se]C(=O)c1ccc(C(=O)[Se]CC#C)s1`
*A* inactive

*Q* Subsequent entry: `CC[C@]12C=CCN3CC[C@@]4(c5ccc(OC)cc5N(C)[C@H]4[C@@](O)(C(=O)OC)[C@@H]1OC(=O)CCCC[P+](c1ccc(OC)cc1)(c1ccc(OC)cc1)c1ccc(OC)cc1)[C@@H]32`
*A* active

*Q* Subsequent entry: `O=C(/C=C/c1ccc(Br)cc1)c1nc2ccccc2n1Cc1ccc(Br)cc1`
*A* active

*Q* Subsequent entry: `Cc1ccc2[nH]c(=S)n(-c3ccc(F)cc3)c(=O)c2c1`
*A* inactive

*Q* Subsequent entry: `C=CCN=C([Se])NC(=O)c1ccc2c(c1)OCO2`
*A* inactive

----------
System: UO-31 renal
Assay: NCI-60 one-dose screen, 48 h
Settings: 10 µM
About 83,000 compounds went through this panel and 20% of them were active in at least one assay; those are over-represented in the sample as a whole. Active and inactive are the calls of the source. The calls were made as follows: active = growth percent below 10; inactive = the rest.
Write down the outcome that applies. Available outcomes: yes (1) (active), no (0) (inactive)

{"MOLECULE": "CC12OOC(C)(OO1)C2CCC(=O)OCCNc1ccnc2cc(Cl)ccc12 (stereo not drawn)", "CLASS_LABEL": "yes (1)"}
{"MOLECULE": "C#CCCCN(CCNc1ccnc2cc(Cl)ccc12)C(=O)CCC(=O)O[C@@H]1O[C@@H]2OC3(C)CC[C@H]4[C@H](C)CC[C@@H]([C@H]1C)[C@@]24OO3", "CLASS_LABEL": "no (0)"}
{"MOLECULE": "CC1=C(COCCOC(=O)c2ccc(S(=O)(=O)F)cc2)C2=C(C)C3(CC3)[C@@](C)(O)C(=O)C2=C1", "CLASS_LABEL": "yes (1)"}

# evaluate next
*Q* Can you look up the reported call for `CC[C@]12C=CCN3CC[C@@]4(c5ccc(OC)cc5N(C)[C@H]4[C@@](O)(C(=O)OC)[C@@H]1OC(=O)CCCC[P+](C1CCCCC1)(C1CCCCC1)C1CCCCC1)[C@@H]32` for me?
*A* no (0)
